System: BT-549
Experiment notes: Growth inhibition of human BT549 cells assessed as cell growth at 10^-4 M by sulforhodamine B assay
Format: functional
Details: read-out: Activity
I would appreciate it if you labelled entries 1.0 when growth at 100 µM is -70% or higher, otherwise 0.0.

Hi team, for CC(C)=CC(=O)O[C@@H]1CC(C)(C)C[C@H]2C3=CC[C@@H]4[C@@]5(C)CCC(=O)C(C)(C)[C@@H]5CC[C@@]4(C)[C@]3(C)CC[C@@]12C(=O)O , is the recorded growth at 100 µM at or above -70%?
1.0

Hi team, for C/C=C(/C)C(=O)O[C@@H]1CC(C)(C)C[C@H]2C3=CC[C@@H]4[C@@]5(C)CCC(=O)C(C)(C)[C@@H]5CC[C@@]4(C)[C@]3(C)CC[C@@]12C(=O)O , is the recorded growth at 100 µM at or above -70%?
1.0

Hi team, for CC(C)=CC(=O)O[C@@H]1CC(C)(C)C[C@H]2C3=CC[C@@H]4[C@@]5(C)CC[C@H](O)C(C)(C)[C@@H]5CC[C@@]4(C)[C@]3(C)CC[C@@]12C(=O)O , is the recorded growth at 100 µM at or above -70%?
1.0

Hi team, for C/C=C(/C)C(=O)O[C@@H]1CC(C)(C)C[C@H]2C3=CC[C@@H]4[C@@]5(C)CC[C@H](O)C(C)(C)[C@@H]5CC[C@@]4(C)[C@]3(C)CC[C@@]12C(=O)O , is the recorded growth at 100 µM at or above -70%?
0.0

---

Record form. Attribute: growth at 10 µM. Fill in for each entry.
Test system: DU-145
Experiment notes: Growth inhibition of human DU145 cells assessed as cell growth at 10 uM by sulforhodamine B assay
Type: functional
Details: read-out: Activity
Write down the numeric answer in % and omit the unit.

Look at this compound and give its reported growth at 10 µM. CC1(C)C[C@@H](O)[C@]2(C(=O)O)CC[C@]3(C)C(=CC[C@@H]4[C@@]5(C)CC[C@H](O)C(C)(C)[C@@H]5CC[C@]43C)[C@@H]2C1
103

Look at this compound and give its reported growth at 10 µM. CC(C)=CC(=O)O[C@@H]1CC(C)(C)C[C@H]2C3=CC[C@@H]4[C@@]5(C)CCC(=O)C(C)(C)[C@@H]5CC[C@@]4(C)[C@]3(C)CC[C@@]12C(=O)O
74.5

Look at this compound and give its reported growth at 10 µM. CC1(C)C[C@@H](O)[C@]2(C(=O)O)CC[C@]3(C)C(=CC[C@@H]4[C@@]5(C)CCC(=O)C(C)(C)[C@@H]5CC[C@]43C)[C@@H]2C1
113

---

Test system: SW-620
Experiment notes: Growth inhibition of human SW620 cells assessed as cell growth at 10 uM by sulforhodamine B assay
Format: functional
Details: read-out: Activity
Endpoint label: growth at 10 µM (%)
Write down the numeric answer in % and omit the unit.

Look at this molecule and give its reported growth at 10 µM. COc1cc(/C=C2\C[C@]3(C)[C@H]4CC=C5[C@@H]6CC(C)(C)C[C@@H](O)[C@]6(C(=O)O)CC[C@@]5(C)[C@]4(C)CC[C@H]3C(C)(C)C2=O)ccc1O
108

Look at this molecule and give its reported growth at 10 µM. CC1(C)C[C@@H](O)[C@]2(C(=O)O)CC[C@]3(C)C(=CC[C@@H]4[C@@]5(C)CCC(=O)C(C)(C)[C@@H]5CC[C@]43C)[C@@H]2C1
104

Look at this molecule and give its reported growth at 10 µM. CC1(C)C[C@@H](O)[C@]2(C(=O)O)CC[C@]3(C)C(=CC[C@@H]4[C@@]5(C)CC[C@H](O)C(C)(C)[C@@H]5CC[C@]43C)[C@@H]2C1
109

Look at this molecule and give its reported growth at 10 µM. C/C=C(/C)C(=O)O[C@@H]1CC(C)(C)C[C@H]2C3=CC[C@@H]4[C@@]5(C)CC[C@H](O)C(C)(C)[C@@H]5CC[C@@]4(C)[C@]3(C)CC[C@@]12C(=O)O
39.1

Look at this molecule and give its reported growth at 10 µM. CC(C)=CC(=O)O[C@@H]1CC(C)(C)C[C@H]2C3=CC[C@@H]4[C@@]5(C)CCC(=O)C(C)(C)[C@@H]5CC[C@@]4(C)[C@]3(C)CC[C@@]12C(=O)O
62.7
